Target: Leishmania donovani DNA topoisomerase IB enzyme (LdTopIB) (Leishmania donovani, UniProt A0A3Q8IHS4+Q8WQM6)
Sequence (A0A3Q8IHS4 entry or part of it): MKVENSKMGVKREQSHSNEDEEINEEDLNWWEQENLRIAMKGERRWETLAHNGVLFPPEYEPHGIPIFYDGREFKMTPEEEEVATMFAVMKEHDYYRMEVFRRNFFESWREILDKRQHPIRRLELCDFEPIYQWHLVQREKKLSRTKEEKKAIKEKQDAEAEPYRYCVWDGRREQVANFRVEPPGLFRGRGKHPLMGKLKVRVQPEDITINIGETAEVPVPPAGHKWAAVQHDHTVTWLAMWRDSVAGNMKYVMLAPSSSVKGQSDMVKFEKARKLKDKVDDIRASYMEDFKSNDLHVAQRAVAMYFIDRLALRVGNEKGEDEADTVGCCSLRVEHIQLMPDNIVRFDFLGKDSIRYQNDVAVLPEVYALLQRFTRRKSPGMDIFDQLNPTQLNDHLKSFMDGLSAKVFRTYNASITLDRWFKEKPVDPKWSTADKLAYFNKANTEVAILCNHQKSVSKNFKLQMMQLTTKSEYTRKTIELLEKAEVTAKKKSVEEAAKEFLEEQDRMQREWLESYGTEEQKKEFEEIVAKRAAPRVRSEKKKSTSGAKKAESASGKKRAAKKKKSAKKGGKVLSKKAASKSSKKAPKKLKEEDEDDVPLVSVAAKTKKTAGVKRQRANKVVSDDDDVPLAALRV
Sequence (Q8WQM6 entry or part of it): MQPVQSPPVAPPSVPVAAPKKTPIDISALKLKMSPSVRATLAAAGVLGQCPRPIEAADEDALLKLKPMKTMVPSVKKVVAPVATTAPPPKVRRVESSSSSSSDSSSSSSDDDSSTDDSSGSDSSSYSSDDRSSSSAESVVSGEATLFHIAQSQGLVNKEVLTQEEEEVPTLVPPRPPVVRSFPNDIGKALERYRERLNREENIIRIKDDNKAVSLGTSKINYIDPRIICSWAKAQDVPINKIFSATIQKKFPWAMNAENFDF
Assay: Inhibition of the relaxation activity of recombinant LdTopIB (plasmid DNA relaxation assay)
Type: biochemical
Conditions: LdTopIB EC50, relaxation activity, 30 min at 37 °C, 1.56–100 µM
measurement_kind: pEC50
Lab note — pEC50 values are minus log10 of concentrations in M.

input: Please supply the value of reported pEC50 for the item CC[C@@]1(O)C(=O)OCc2c1cc1n(c2=O)Cc2cc3ccccc3nc2-1 [CPT, Camptothecin, reference compound]
output: 6.15

* * *

Listing of entries alongside the reported pEC50.
Biological target: human topoisomerase IB enzyme (hTopIB) (Homo sapiens)
Sequence (P11387 whole entry): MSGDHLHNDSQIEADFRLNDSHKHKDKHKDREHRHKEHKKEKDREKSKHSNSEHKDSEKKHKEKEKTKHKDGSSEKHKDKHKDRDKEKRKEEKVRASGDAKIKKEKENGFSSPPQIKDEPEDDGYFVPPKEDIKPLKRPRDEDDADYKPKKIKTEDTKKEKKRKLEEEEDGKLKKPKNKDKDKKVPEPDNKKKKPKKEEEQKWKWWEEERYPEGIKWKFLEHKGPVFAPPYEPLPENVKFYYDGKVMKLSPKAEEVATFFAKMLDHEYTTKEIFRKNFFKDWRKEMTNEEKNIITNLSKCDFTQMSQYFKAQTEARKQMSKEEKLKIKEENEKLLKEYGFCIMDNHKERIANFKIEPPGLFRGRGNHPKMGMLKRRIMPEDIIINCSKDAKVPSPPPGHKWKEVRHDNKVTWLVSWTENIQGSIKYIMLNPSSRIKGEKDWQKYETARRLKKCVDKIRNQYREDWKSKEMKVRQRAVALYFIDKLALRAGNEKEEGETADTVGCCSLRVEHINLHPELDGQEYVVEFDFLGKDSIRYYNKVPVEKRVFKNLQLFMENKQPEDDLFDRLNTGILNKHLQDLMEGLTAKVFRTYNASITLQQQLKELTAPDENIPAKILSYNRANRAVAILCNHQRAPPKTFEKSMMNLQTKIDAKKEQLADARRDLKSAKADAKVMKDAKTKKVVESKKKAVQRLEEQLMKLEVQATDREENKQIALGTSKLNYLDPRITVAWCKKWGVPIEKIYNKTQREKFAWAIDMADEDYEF
Assay: Inhibition of the relaxation activity of hTopIB (plasmid DNA relaxation assay)
Assay type: biochemical
Conditions: 30 min at 37 °C, 1–100 µM
pEC50: −log10 of the molar value.

{"compound": "CCCCCCCCCCC#CCCC#CCCC(OC)C(=O)O (racemic) [compound 2, (±)-2-methoxy-5,9-eicosadiynoic acid]", "reported": "< 4.00"}

input: Supply measured pEC50 of CCCCCCCCCCCCCC#CCCCC(OC)C(=O)O (racemic) [compound 12, (±)-2-methoxy-6-icosynoic acid] in your reply.
output: < 4.00

input: Indicate its recorded pEC50; the compound in question is CCCCCCCCCC/C=C\CC/C=C\CCC(OC)C(=O)O (racemic)
output: < 4.00
